GI50 listing for selected compounds.
Target: Ba/F3 EGFR L858R/T790M/C797S mutants (Homo sapiens, UniProt P00533, T790M/C797S/L858R, cells depend on it)
Sequence (P00533 whole entry T790M/C797S/L858R): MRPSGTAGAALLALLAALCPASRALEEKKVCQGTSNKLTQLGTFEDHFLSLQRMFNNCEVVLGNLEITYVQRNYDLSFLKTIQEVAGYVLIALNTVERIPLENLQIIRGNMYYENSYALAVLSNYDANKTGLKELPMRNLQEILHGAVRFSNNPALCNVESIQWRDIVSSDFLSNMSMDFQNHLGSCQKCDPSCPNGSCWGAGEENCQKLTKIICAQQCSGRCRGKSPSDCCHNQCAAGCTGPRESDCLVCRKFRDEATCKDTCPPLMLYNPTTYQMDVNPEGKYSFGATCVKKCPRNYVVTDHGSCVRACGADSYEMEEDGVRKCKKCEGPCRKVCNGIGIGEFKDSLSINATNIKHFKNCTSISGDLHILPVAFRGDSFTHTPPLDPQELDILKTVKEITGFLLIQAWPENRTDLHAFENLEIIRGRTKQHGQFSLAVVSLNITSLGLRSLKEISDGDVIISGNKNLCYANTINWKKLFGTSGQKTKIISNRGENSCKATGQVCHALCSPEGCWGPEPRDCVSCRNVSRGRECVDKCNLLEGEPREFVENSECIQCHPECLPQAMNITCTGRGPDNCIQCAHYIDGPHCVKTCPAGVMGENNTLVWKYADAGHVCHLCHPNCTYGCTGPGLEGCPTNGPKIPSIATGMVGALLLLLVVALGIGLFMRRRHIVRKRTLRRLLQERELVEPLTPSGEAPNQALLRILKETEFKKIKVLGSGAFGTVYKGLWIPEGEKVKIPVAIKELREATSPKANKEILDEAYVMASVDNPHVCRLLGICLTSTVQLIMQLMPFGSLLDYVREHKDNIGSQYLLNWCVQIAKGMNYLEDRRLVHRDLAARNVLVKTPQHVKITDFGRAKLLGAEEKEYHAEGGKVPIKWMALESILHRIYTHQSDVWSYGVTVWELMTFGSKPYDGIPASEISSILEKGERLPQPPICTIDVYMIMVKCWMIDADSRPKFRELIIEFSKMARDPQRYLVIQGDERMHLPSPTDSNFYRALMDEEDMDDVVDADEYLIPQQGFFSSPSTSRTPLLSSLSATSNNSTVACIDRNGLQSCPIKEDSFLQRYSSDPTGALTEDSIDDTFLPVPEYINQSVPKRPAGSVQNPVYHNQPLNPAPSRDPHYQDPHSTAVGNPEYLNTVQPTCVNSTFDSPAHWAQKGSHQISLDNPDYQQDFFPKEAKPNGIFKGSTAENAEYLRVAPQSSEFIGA
Test: CellTiter-Glo cell viability, Ba/F3 EGFR L858R/T790M/C797S cells
Format: cell-based, murine
Conditions: 72 hours, read-out: Ba/F3 EGFR mutant cell (IC50, nM) L/T/C
Report as a plain number; the unit nM is understood.

[[record]]
compound = "CCc1cc(Nc2ncc(Cl)c(Nc3cccc(OC)c3NS(C)(=O)=O)n2)c(OC)cc1N1CCC(N2CCOCC2)CC1 [Example C20]"
measured_endpoint = "GI50"
reported_measurement = 148


Attention now shifts to the item below.
I am curious: what GI50 value has been reported for COc1cc(N2CCC(N3CCN(C)CC3)CC2)c(C)cc1Nc1ncc(Br)c(Nc2ccc3nccnc3c2NS(=O)(=O)C2CC2)n1 [Example A19] ? 43

Sourced from patent US12297194B2
